- Test system: lipid peroxidation in rat brain homogenate
- experiment: Inhibitory action on lipid peroxidation in rat brain homogenate
- Assay type: biochemical, Wistar-strain male rats
- particulars: 10^-4 M, 37° C., 15 minutes
Reported values of Inhibitory rate of lipid peroxidation for individual entries
Just the number please, in %, no unit attached.

Answered cases to consult:
| smilesRepr | tgt | endpointUnit | Inhibitory rate of lipid peroxidation |
| --- | --- | --- | --- |
| O=C(NCCCCCCCCCCCCCCCCCCO[N+](=O)[O-])c1ccc(N2CCNCC2)nc1 | lipid peroxidation in rat brain homogenate | % | 75 |
| CCN1CCN(c2ccc(C(=O)NCCCCCCCCCCCCCCO[N+](=O)[O-])cn2)CC1 | lipid peroxidation in rat brain homogenate | % | 69 |
| CC(C)N1CCN(c2ccc(C(=O)NCCCCCCCCCCCCCCO[N+](=O)[O-])cn2)CC1 | lipid peroxidation in rat brain homogenate | % | 70 |

Now turn to the next molecule.
Prompt: Can you share its Inhibitory rate of lipid peroxidation? I mean this molecule: "CN1CCN(c2ccc(C(=O)NCCCCCCCCCCCCCCCCO[N+](=O)[O-])cn2)CC1"
Response: 72

====

- Test system: hypoxic model of mice
- experiment: Cerebral protective action (anti-anoxia action), hypoxic model of mice, gasping duration after decapitation
- Assay type: in vivo, ddY-strain male mice
- particulars: 1.0 mg/kg i.v., 30 minutes before decapitation
The entries below come with measured Gasping duration (relative to Comparative Compound 1 defined as 1) values attached.

Examples from the recorded data:
| compound | readoutValue |
| --- | --- |
| CN1CCN(c2ccc(C(=O)NCCCCCCCCCCCO[N+](=O)[O-])cn2)CC1 [Comparative Compound 1, reference compound] | 1 |
| CN1CCN(c2ccc(C(=O)NCCCCCCCCCCCCCCO[N+](=O)[O-])cn2)CC1 | 2.6 |
| CCN1CCN(c2ccc(C(=O)NCCCCCCCCCCCCCCCCO[N+](=O)[O-])cn2)CC1 | 1.7 |

Switching to the query record.
Prompt: Can you look up the measured Gasping duration (relative to Comparative Compound 1 defined as 1) of "CC(C)N1CCN(c2ccc(C(=O)NCCCCCCCCCCCCCCCCO[N+](=O)[O-])cn2)CC1" for me?
Response: 1.4

====

- Test system: lipid peroxidation in rat brain homogenate
- experiment: Inhibitory action on lipid peroxidation in rat brain homogenate
- Assay type: biochemical, Wistar-strain male rats
- particulars: 10^-4 M, 37° C., 15 minutes
metricName: Inhibitory rate of lipid peroxidation (%)
The response must be a number in % with no trailing unit.

Here are 2 molecules together with their reported answers.
| smilesRepr | Inhibitory rate of lipid peroxidation (%) |
| --- | --- |
| CC(C)N1CCN(c2ccc(C(=O)NCCCCCCCCCCCCCCCCO[N+](=O)[O-])cn2)CC1 | 53 |
| O=C(NCCCCCCCCCCCCCCO[N+](=O)[O-])c1ccc(N2CCNCC2)nc1 | 59 |

Here's the next entry for you.
Prompt: Give its Inhibitory rate of lipid peroxidation value. Item: "CN1CCN(c2ccc(C(=O)NCCCCCCCCCCCCCCO[N+](=O)[O-])cn2)CC1"
Response: 91
